FYI, the data here is from ChEMBL document CHEMBL3714725.

Molecular target: P2X purinoceptor 3 (Rattus norvegicus)
Experiment: Antagonist activity against rat P2X3 receptor expressed in CHOK1 cells assessed as inhibition of alpha,beta-meATP-induced calcium response incubated for 20 mins by Fluo-3AM dye based FLIPR assay
Format: functional, cell-based
Conditions: CHO-K1
Activity calls are given as the source filed them. How the calls were made is not given here.
measurement_kind: inhibition

structure_as_smiles	inhibition
COc1cc(C(C)C)c(Oc2cnc(NC(=O)c3ccncc3)nc2N)cc1I	Active
COc1cc(C(C)C)c(Oc2cnc(NC(=O)C3CCN(C(C)=O)CC3)nc2NC(=O)C2CCN(C(C)=O)CC2)cc1I	Active
COc1cc(C(C)C)c(Oc2cnc(NC(=O)CC(C)C)nc2N)cc1I	Active
COc1cc(C(C)C)c(Oc2cnc(NC(=O)C(C)(C)O)nc2N)cc1I	Active

Provide the reported inhibition of each entry below, same order.
1. COc1cc(C(C)C)c(Oc2cnc(NC(=O)CC(C)C)nc2NC(=O)CC(C)C)cc1I
2. COc1cc(C(C)C)c(Oc2cnc(NC(=O)COC(C)=O)nc2N)cc1I
3. COc1cc(C(C)C)c(Oc2cnc(N)nc2NC(=O)c2ccco2)cc1I
4. CCCC(=O)Nc1ncc(Oc2cc(I)c(OC)cc2C(C)C)c(NC(=O)CCC)n1
5. COc1cc(C(C)C)c(Oc2cnc(NC(C)=O)nc2NC(C)=O)cc1I
6. COc1cc(C(C)C)c(Oc2cnc(N)nc2NC(=O)[C@@H]2CCCO2)cc1I

Output:
1. Active
2. Active
3. Active
4. Active
5. Active
6. Active

###

Biological target: P2X purinoceptor 3 (Rattus norvegicus) (UniProt P49654)
Sequence (whole entry): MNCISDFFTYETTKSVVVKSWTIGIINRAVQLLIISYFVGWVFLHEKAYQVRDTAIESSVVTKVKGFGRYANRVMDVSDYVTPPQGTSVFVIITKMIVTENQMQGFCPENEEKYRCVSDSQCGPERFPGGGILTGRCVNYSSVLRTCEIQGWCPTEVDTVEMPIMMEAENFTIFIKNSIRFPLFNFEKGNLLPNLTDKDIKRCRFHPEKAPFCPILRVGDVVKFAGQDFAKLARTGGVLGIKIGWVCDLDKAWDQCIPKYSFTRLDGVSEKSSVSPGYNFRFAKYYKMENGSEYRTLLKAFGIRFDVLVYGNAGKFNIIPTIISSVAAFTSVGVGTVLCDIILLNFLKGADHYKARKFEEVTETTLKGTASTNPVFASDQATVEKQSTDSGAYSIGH
Experiment: Antagonist activity against rat P2X3 receptor expressed in CHOK1 cells assessed as inhibition of alpha,beta-meATP-induced calcium response incubated for 20 mins by Fluo-3AM dye based FLIPR assay
Type: functional, cell-based
Conditions: CHO-K1
Calls of active or inactive are those of the source. No rule for the calls is given here.
measurement_kind: inhibition

The following compounds have reported results that may help.
compound	inhibition
C#Cc1cc(Oc2cnc(N)nc2NC(=O)c2cccn2C)c(C(C)C)cc1OC	Active
COc1cc(C(C)C)c(Oc2cnc(NC(=O)CCC(=O)O)nc2N)cc1I	Active
C#Cc1cc(Oc2cnc(N)nc2NC(=O)c2ccccc2)c(C(C)C)cc1OC	Active
C#Cc1cc(Oc2cnc(N)nc2NC(=O)CCC)c(C(C)C)cc1OC	Active
COc1cc(C(C)C)c(Oc2cnc(NC(=O)C3CCN(C)CC3)nc2N)cc1I	Active

Provide the reported inhibition of each entry below, same order.
1. COCCOCC(=O)Nc1ncc(Oc2cc(I)c(OC)cc2C(C)C)c(N)n1
2. COc1cc(C(C)C)c(Oc2cnc(NC(=O)C(C)C)nc2NC(=O)C(C)C)cc1I
3. CCCCC(=O)Nc1ncc(Oc2cc(I)c(OC)cc2C(C)C)c(N)n1
4. COc1cc(C(C)C)c(Oc2cnc(N)nc2NC(=O)c2cccn2C)cc1I
5. COc1cc(C(C)C)c(Oc2cnc(NC(=O)C(N)C(C)C)nc2N)cc1I (stereo not given)

Output:
1: Active; 2: Active; 3: Active; 4: Active; 5: Active
